Origin of the recorded values: the supplement of paper PMC11908140

For each of the variants below, state its 8OG:A repair function score.
B1: library; numbered along this chain (parent)
chain: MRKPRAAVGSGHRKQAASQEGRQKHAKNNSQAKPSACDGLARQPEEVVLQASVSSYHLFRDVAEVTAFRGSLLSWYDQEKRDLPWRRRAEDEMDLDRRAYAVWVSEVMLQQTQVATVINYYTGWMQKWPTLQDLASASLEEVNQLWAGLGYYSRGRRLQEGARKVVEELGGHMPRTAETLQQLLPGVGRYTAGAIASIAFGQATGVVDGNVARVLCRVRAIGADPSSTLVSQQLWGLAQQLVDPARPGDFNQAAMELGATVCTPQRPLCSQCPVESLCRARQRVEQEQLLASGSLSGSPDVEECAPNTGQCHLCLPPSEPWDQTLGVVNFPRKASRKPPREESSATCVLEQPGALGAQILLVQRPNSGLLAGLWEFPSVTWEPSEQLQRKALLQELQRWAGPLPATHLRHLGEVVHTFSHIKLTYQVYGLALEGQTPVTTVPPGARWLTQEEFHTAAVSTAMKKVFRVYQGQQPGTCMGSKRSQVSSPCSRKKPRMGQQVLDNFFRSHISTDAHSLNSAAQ

- Variants of: B1
- protocol text: 8OG:A repair function score (normalized; synonymous = 0, nonsense = -1) (normalized log-likelihood score); higher = more repair activity (WT-like);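 note: cells sorted at 72 h after reporter transfection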
- experimental setup: with 8OG:A DNA repair reporter (GFP) in HEK-293 MUTYH KO cells

Q: Could you share which 8OG:A repair function score value was measured for S483G ?
Result: -0.0331

Q: Could you share which 8OG:A repair function score value was measured for R409T ?
Result: 0.31

Q: Could you share which 8OG:A repair function score value was measured for N210D ?
Result: -1.03

Q: Could you share which 8OG:A repair function score value was measured for S419W ?
Result: -0.75

Q: Could you share which 8OG:A repair function score value was measured for V62P ?
Result: 0.00101

Q: Could you share which 8OG:A repair function score value was measured for E285Q ?
Result: -0.00364

Q: Could you share which 8OG:A repair function score value was measured for Q232E ?
Result: 0.105

Q: Could you share which 8OG:A repair function score value was measured for G412N ?
Result: -0.34

Q: Could you share which 8OG:A repair function score value was measured for L432E ?
Result: -0.542

Q: Could you share which 8OG:A repair function score value was measured for R217V ?
Result: -1.01

Q: Could you share which 8OG:A repair function score value was measured for G161F ?
Result: -1.03

Q: Could you share which 8OG:A repair function score value was measured for G475I ?
Result: -0.00703

Q: Could you share which 8OG:A repair function score value was measured for P488N ?
Result: 0.00623

Q: Could you share which 8OG:A repair function score value was measured for D91W ?
Result: -0.00643

Q: Could you share which 8OG:A repair function score value was measured for R175L ?
Result: -0.252

Q: Could you share which 8OG:A repair function score value was measured for S276C ?
Result: -0.133

Q: Could you share which 8OG:A repair function score value was measured for R163Q ?
Result: -0.143

Q: Could you share which 8OG:A repair function score value was measured for F330P ?
Result: -1.04

Q: Could you share which 8OG:A repair function score value was measured for P34V ?
Result: -0.0896

Q: Could you share which 8OG:A repair function score value was measured for L131A ?
Result: -0.104

Q: Could you share which 8OG:A repair function score value was measured for Q473L ?
Result: -0.0116

Q: Could you share which 8OG:A repair function score value was measured for G222Q ?
Result: -0.443
